# Test system: intrinsic blood clotting system
# method.summary: Determination of the inhibition of contact activation: activated partial thromboplastin time (aPTT) in platelet-poor plasma
# Parameters: species or system human
# test.conditions: concentration of inhibitor causing twofold prolongation of aPTT; platelet-poor citrate plasma from healthy volunteers; 10 min incubation at 37° C.; PTT reagent (kaolin/cephalin)
Catalogue of Twofold prolongation of the aPTT readings, one per entry.
State the result as a value with its unit after it.

Consider the worked cases shown below.
O=C(NC[C@H]1CN(c2ccc(N3CCCC3=O)cc2)C(=O)O1)c1ccc(Br)s1; 4.3 µM
O=C(NC[C@H]1CN(c2ccc(N3CCOCC3=O)cc2)C(=O)O1)c1ccc(Cl)s1; 0.69 µM
O=C(NC[C@H]1CN(c2ccc(N3CCCC3=O)cc2)C(=O)O1)c1ccc(Cl)s1; 1.8 µM
O=C(NCC1CN(c2ccc(N3CCCC3=O)c(C(F)(F)F)c2)C(=O)O1)c1ccc(Cl)s1 (centres unmarked); 1.6 µM
O=C(NCC1CN(c2ccc(N3CCOCC3=O)c(C(F)(F)F)c2)C(=O)O1)c1ccc(Cl)s1 (centres unmarked); 2.2 µM
O=C(NC[C@H]1CN(c2ccc(N3CCOCC3=O)c(F)c2)C(=O)O1)c1ccc(Cl)s1 [Example 130a]; 0.4 µM
Cc1cc(N2CC(CNC(=O)c3ccc(Cl)s3)OC2=O)ccc1N1CCOCC1=O (centres unmarked); 1.34 µM
Nc1cc(N2CC(CNC(=O)c3ccc(Cl)s3)OC2=O)ccc1N1CCOCC1=O (centres unmarked); 1.22 µM

For O=C(NC[C@H]1CN(c2ccc(N3CCCCC3=O)cc2)C(=O)O1)c1ccc(Cl)s1 the compound record lists Twofold prolongation of the aPTT as 2.5 µM

Form field Twofold prolongation of the aPTT, entry O=C(NCC1CN(c2ccc(N3CCOCC3=O)c(F)c2)C(=O)O1)c1ccc(Cl)s1 (centres unmarked) : 0.51 µM

Form: compound = O=C(NCC1CN(c2ccc(N3CCOCC3=O)c(Cl)c2)C(=O)O1)c1ccc(Cl)s1 (centres unmarked) ; Twofold prolongation of the aPTT = 0.55 µM
